Tested on: RXF 393
assay.text: NCI tumour cell line growth inhibition, 48 h
Active and inactive are the calls of the source. No stated cut-off is given here; in the data, active = GI50 up to about 1.1 µM and inactive = higher.
Classes used: active, inactive

• CC(=O)Nc1ccc(S(=O)(=O)NN(C)S(=O)(=O)c2ccc(C)cc2)cc1 = inactive
• CC(=O)O[C@H]1C[C@H](O[C@H]2[C@@H](O)C[C@H](O[C@H]3[C@@H](O)C[C@H](O[C@H]4CC[C@@]5(C)[C@H](CC[C@@H]6[C@@H]5CC[C@]5(C)[C@@H](C7=CC(=O)OC7)CC[C@]65O)C4)O[C@@H]3C)O[C@@H]2C)O[C@H](C)[C@H]1O[C@@H]1O[C@H](CO)[C@@H](O)[C@H](O)[C@H]1O = active
• C#CCSC(C=C=C)P(=O)(OC(C)C)OC(C)C (stereo not given) = inactive
• Nc1ccc(C(=O)O)c2[nH]c3ccccc3c(=O)c12 = inactive
• Cc1nc(Nc2ccc(Cl)cc2)sc1C(=O)NNC(=S)NN = inactive
• CC1C=CC(=O)C(n2cc(F)c(=O)[nH]c2=O)O1 (stereo not given) = inactive
• CCNC(=O)Cc1nc2c(O)ncnc2n1C1OC(CO)C(O)C1O (stereo not given) = inactive
• NS(=O)(=O)c1ccc(NC(NC(=O)C(C(F)(F)F)C(F)(F)F)(C(F)(F)F)C(F)(F)F)cc1 = inactive
• O=C1c2ccccc2N2OC3(N4CCCC4)CCCC3C12c1ccccc1 (stereo not given) = inactive
• O=C1CCC(=O)c2ccccc2N1 = inactive
